Target: T1, human LTBP3-proTGFβ1 complex (human, UniProt Q9NS15 866-1039)
T1 construct: range 866-1039; also called hLTBP3-proTGFβ1; hLTBP3
T1 sequence (Q9NS15 866-1039 limits assumed, chain 1 of 2): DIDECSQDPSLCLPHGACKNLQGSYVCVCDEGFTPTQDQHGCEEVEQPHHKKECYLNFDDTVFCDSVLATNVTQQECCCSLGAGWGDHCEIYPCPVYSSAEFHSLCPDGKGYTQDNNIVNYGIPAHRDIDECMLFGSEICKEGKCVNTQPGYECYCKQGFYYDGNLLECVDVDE
T1 sequence (chain, as listed by the source limits assumed, chain 2 of 2): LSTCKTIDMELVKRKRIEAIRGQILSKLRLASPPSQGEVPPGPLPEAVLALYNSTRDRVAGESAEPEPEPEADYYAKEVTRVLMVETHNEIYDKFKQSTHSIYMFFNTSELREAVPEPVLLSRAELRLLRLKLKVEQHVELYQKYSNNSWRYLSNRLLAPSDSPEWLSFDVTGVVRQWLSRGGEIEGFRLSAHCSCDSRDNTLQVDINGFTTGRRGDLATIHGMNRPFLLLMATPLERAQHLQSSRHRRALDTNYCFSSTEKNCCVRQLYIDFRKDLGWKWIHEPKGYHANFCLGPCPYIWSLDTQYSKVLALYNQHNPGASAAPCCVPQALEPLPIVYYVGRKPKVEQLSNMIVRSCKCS
Experiment: BLI (Octet)
# pKd per record follows
// returns pKd (minus log10 of molar concentration), number only

# count of solved cases: 5
Bench note: what pKd did Ab29 (antibody, IgG4, V domains shown) VH: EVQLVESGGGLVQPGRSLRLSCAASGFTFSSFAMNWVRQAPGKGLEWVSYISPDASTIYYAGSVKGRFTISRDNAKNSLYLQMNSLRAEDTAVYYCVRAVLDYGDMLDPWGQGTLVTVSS VL: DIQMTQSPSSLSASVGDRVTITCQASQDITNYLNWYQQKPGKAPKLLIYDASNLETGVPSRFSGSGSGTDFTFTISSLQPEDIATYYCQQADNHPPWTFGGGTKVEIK show? 9.92

// lookup pKd for Ab2 (antibody, human IgG4 S228P, kappa, V domains shown) VH: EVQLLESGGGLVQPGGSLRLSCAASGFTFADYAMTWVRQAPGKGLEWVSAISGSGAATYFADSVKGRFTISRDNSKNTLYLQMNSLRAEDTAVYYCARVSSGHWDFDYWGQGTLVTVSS VL: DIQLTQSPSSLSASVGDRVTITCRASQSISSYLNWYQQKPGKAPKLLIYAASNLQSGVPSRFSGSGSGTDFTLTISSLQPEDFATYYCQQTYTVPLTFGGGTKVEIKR 9.83

I'd like to know its pKd. The binder in question is Ab23 (antibody, V domains shown) VH: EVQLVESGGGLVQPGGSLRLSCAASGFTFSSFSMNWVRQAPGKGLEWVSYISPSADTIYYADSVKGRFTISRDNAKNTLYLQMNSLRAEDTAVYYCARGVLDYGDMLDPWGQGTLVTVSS VL: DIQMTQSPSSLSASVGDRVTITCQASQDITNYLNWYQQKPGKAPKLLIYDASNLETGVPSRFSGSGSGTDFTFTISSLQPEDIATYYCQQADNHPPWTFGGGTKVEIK 9.33

Return reported pKd; argument: Ab20 (antibody, IgG4, V domains shown) VH: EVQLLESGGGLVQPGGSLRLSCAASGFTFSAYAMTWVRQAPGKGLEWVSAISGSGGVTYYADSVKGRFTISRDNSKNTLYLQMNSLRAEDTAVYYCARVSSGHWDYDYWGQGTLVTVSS VL: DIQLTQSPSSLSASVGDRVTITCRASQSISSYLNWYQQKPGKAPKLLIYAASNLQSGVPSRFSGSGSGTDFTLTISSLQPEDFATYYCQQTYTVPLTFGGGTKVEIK 9.88

Any idea what its pKd is? The binder is Ab14 (antibody, V domains shown) VH: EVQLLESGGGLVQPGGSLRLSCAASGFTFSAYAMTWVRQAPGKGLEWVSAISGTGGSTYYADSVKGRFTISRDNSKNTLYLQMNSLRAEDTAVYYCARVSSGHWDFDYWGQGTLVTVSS VL: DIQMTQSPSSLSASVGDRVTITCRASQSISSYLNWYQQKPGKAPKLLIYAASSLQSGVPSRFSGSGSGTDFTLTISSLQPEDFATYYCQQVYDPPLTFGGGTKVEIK 9.46

---
May I ask what pKd has been recorded for Ab18 (antibody, V domains shown) VH: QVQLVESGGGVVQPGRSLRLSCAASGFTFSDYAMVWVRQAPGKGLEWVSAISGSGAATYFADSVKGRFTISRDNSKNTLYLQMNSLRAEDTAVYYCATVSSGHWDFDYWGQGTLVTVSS VL: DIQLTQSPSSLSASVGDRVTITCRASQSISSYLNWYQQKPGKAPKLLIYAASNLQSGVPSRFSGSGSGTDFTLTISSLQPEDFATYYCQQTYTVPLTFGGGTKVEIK ? 9.59

Param item = Ab17 (antibody, V domains shown) VH: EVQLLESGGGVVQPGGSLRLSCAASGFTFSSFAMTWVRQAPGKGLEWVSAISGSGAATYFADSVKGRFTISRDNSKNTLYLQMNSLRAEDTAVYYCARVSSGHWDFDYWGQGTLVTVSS VL: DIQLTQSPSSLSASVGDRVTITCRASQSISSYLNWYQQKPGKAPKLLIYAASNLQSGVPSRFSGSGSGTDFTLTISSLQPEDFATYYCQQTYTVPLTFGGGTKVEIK ; retrieve measured pKd. 9.68

Report pKd for Ab21 (antibody, V domains shown) VH: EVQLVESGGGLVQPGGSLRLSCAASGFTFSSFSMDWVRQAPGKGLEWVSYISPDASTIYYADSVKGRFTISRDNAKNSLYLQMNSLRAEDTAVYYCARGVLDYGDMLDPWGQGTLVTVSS VL: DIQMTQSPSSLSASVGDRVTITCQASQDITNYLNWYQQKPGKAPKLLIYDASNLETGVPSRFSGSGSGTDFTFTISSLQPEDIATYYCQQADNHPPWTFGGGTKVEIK please. 9.57

Quick one: pKd for Ab33 (antibody, IgG4, V domains shown) VH: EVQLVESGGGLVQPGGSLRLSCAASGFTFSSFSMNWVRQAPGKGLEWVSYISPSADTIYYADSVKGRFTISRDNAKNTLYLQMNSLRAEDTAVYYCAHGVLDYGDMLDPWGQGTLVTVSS VL: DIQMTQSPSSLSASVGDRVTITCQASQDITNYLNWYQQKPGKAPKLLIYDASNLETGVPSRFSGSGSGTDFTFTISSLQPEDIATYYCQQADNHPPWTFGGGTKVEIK ? 9.95

Which measured pKd value corresponds to Ab22 (antibody, IgG4, V domains shown) VH: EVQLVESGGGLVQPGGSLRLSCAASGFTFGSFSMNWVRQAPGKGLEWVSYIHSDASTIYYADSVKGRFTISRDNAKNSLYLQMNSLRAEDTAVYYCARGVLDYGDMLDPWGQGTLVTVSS VL: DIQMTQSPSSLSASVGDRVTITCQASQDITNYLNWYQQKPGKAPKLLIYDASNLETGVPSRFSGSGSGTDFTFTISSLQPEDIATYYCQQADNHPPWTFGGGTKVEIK ? 9.48

meta.source: patent US20220064275A1
